tested on: Maize weevil [Sitophilus Zeamais (Motschulsky)]; assay: Maize weevil test (MW); format: in vivo; conditions: adult weevils, treated corn seeds, 48 hours, percent in solution
quantityName: LC50 MW

A selection of reference data follows.
> print(dat)
                            smilesstructure  quantityname   result
1  CC(C)C(=Nc1ccc(Br)cc1F)OCc1cccc(Oc2ccc(F)cc2)c1       LC50 MW  > 0.01%
2  Cc1cc(N=C(OCc2ccc(F)c(Oc3ccccc3)c2)C(C)C)ccc1F       LC50 MW  > 0.01%
3  CC(C)C(=Nc1ccc(Br)c(Br)c1)OCc1ccc(F)c(Oc2ccc(F)cc2)c1       LC50 MW  > 0.01%

Q: Which LC50 MW value belongs to CC(C)C(=Nc1cccc(Br)c1)OCc1ccc(F)c(Oc2ccccc2)c1 ?
A: > 0.01%

Q: Given the compound CC(C)C(=Nc1ccc(F)c(Cl)c1)OCc1cccc(Oc2ccccc2)n1 , what is its reported LC50 MW?
A: > 0.05%

---

Quick reference: LC50 MW of the listed items.
system: Maize weevil [Sitophilus Zeamais (Motschulsky)]; experiment: Maize weevil test (MW); type: in vivo; conditions: adult weevils, treated corn seeds, 48 hours, percent in solution

Reference set, count: 2
> print(dat)
                                   compound   result
1  CC(C)C(=Nc1ccc(F)cc1F)OCc1coc(Cc2ccccc2)c1 [Compound 486]  > 0.01%
2  CC(C)C(=Nc1ccc(F)c(F)c1)OCc1ccc(F)c(Oc2ccccc2)c1 [Compound 336]  0.0091%

Q: Sample CC(C)C(=Nc1ccc(F)c(Cl)c1)OCc1cccc(Oc2ccccc2)c1 [Compound 81] — what was its LC50 MW?
A: 0.005%

Q: Quick one: LC50 MW of COc1ccc(N=C(OCc2ccc(F)c(Oc3ccc(Cl)cc3)c2)C(C)C)cc1 [Compound 412] ?
A: > 0.01%

---

test system: Maize weevil [Sitophilus Zeamais (Motschulsky)]; assay: Maize weevil test (MW); type: in vivo; settings: adult weevils, treated corn seeds, 48 hours, percent in solution
Known LC50 MW of a selection of molecules

> print(dat)
                                   molecule   result
1  CC(Br)C(=Nc1ccc2c(c1)OCO2)OCc1cccc(Oc2ccccc2)c1 (centres unmarked)  > 0.01%
2  CC(C)C(=Nc1ccc(F)c(Cl)c1)OCc1cccc(Oc2ccc(F)cc2)c1F   0.005%
3  CC(C)C(=Nc1ccc(F)c(Cl)c1)OCc1cccc(Cc2ccccc2)c1 [Compound 537]  > 0.01%
4  CC(C)C(=Nc1ccc(F)c(F)c1)OCc1ccc(F)c(Oc2ccc(F)cc2)c1  0.0063%
5  CC(C)C(=Nc1ccc(I)c(Cl)c1)OCc1cccc(Oc2ccc(Cl)cc2)n1  > 0.01%

Q: Which LC50 MW is reported for this molecule? CC(C)C(=Nc1ccc(F)c(C(F)(F)F)c1)OCc1ccc(F)c(Oc2ccccc2)c1
A: 0.01%

Q: Entry under review: Fc1ccc(N=C(OCc2cccc(Oc3ccccc3)c2)C(F)F)cc1 . Reported LC50 MW?
A: > 0.01%

Q: What value of measured LC50 MW is listed for CC(C)C(=Nc1ccc(F)c(Cl)c1)OCc1cccc(Cc2ccccc2)c1 [Compound 541] ?
A: > 0.01%

---

LC50 MW by entry:
tested on: Maize weevil [Sitophilus Zeamais (Motschulsky)]; assay: Maize weevil test (MW); assay type: in vivo; conditions: adult weevils, treated corn seeds, 48 hours, percent in solution

These solved cases illustrate the format of a correct answer.
> print(dat)
                                   compound   result
1  CC(C)(C)C(=Nc1cccc(C(F)(F)F)c1)OCc1cccc(Oc2ccccc2)c1 [Compound 88]  > 0.01%
2  Cc1ccc(N=C(OCc2ccc(F)c(Oc3ccc(F)cc3)c2)C(C)C)cc1Cl [Compound 357]    0.01%
3  Cc1cc(N=C(OCc2ccc(F)c(Oc3ccccc3)c2)C(C)C)ccc1Br [Compound 358]  > 0.01%
4  COc1ccc(N=C(OCc2ccc(F)c(Oc3ccccc3)c2)C(C)C)cc1Cl [Compound 409]  > 0.01%
5  CC(C)C(=Nc1ccc(OCC(F)(F)F)c(Cl)c1)OCc1cccc(Oc2ccc(F)cc2)c1 [Compound 420]  > 0.01%
6  Cc1cccc(N=C(OCc2cccc(Oc3ccc(Cl)cc3)n2)C(C)C)c1 [Compound 545]  > 0.01%
7  Cc1cc(N=C(OCc2cccc(Oc3ccc(Cl)cc3)c2)C(C)C)ccc1F [Compound 397]  > 0.01%
8  CC(C)C(=Nc1ccc(C(C)(C)C)cc1)OCc1ccc(F)c(Oc2ccc(Cl)cc2)c1 [Compound 301]  > 0.01%

Q: Which LC50 MW reading was recorded for the compound C=C(C)C(=Nc1ccc(C(F)(F)F)cc1)OCc1cccc(Oc2ccc(Cl)cc2)n1 [Compound 560] ?
A: > 0.01%

Q: What does the record list as LC50 MW for CCOc1ccc(N=C(OCc2ccc(F)c(Oc3ccc(Cl)cc3)c2)C(C)C)cc1 [Compound 372] ?
A: > 0.01%

---

# LC50 MW per entry
tested on: Maize weevil [Sitophilus Zeamais (Motschulsky)]; assay: Maize weevil test (MW); format: in vivo; conditions: adult weevils, treated corn seeds, 48 hours, percent in solution

Some compounds with known LC50 MW results, for comparison:
> print(dat)
                                   compound  quantityname   result
1  CC(C)C(=Nc1ccc(F)c(F)c1)OCc1cccc(Oc2ccc(Cl)cc2)n1       LC50 MW  > 0.01%
2  CC(Cl)(Cl)C(=Nc1ccc(Cl)cc1)OCc1cccc(Oc2ccccc2)c1       LC50 MW  > 0.01%
3  C=C(C)C(=Nc1ccc(F)c(Cl)c1)OCc1cccc(Oc2ccccc2)c1       LC50 MW  < 0.01%
4  CCOc1cccc(N=C(OCc2ccc(F)c(Oc3ccc(F)cc3)c2)C(C)C)c1       LC50 MW  > 0.01%
5  CC(C)C(=Nc1ccc(Br)cc1)OCc1coc(Cc2ccccc2)c1       LC50 MW  > 0.01%

Q: Sample CC(C)C(=Nc1ccc(Br)c(F)c1)OCc1cccc(Oc2ccc(Cl)cc2)n1 — what was its LC50 MW?
A: > 0.01%

Q: Entry CC(C)C(=Nc1cccc(C(F)(F)F)c1)OCc1ccc(F)c(Oc2ccc(F)cc2)c1 : reported LC50 MW = ?
A: > 0.01%

Q: What does the data say about its LC50 MW? Entry: CC(C)C(=Nc1ccc(F)c(Cl)c1)OCc1cccc(Oc2ccc(Cl)cn2)c1
A: > 0.01%

Q: Requested field: LC50 MW. Item: CC(C)C(=Nc1ccc(Cl)c(C(F)(F)F)c1)OCc1cccc(Oc2ccccc2)n1
A: > 0.01%

Q: What value of measured LC50 MW is listed for CC(C)C(=Nc1cccc(C(F)(F)F)c1)OCc1cc(Oc2ccc(F)cc2)ccn1 ?
A: > 0.01%

---

system: Maize weevil [Sitophilus Zeamais (Motschulsky)]; assay: Maize weevil test (MW); type: in vivo; settings: adult weevils, treated corn seeds, 48 hours, percent in solution
Below, each entry is listed alongside its reported LC50 MW.

Some solved cases for reference:
> print(dat)
                                   compound                              testedtarget   result
1  COc1ccc(N=C(OCc2ccc(F)c(Oc3ccc(Cl)cc3)c2)C(C)C)cc1Cl [Compound 410]  Maize weevil [Sitophilus Zeamais (Motschulsky)]  > 0.01%
2  CC(C)C(=Nc1ccc2c(c1)OC(F)(F)O2)OCc1cccc(Oc2ccc(Cl)cc2)c1 [Compound 450]  Maize weevil [Sitophilus Zeamais (Motschulsky)]    0.01%
3  CC(C)C(=Nc1ccc(F)c(Cl)c1)OCc1ccc(OCc2ccccc2)cc1 [Compound 475]  Maize weevil [Sitophilus Zeamais (Motschulsky)]  > 0.01%

We next turn to a different compound, shown below.
Q: // lookup LC50 MW for CC(C)C(=Nc1ccc(F)c(Cl)c1)OCC#CCOc1ccccc1 [Compound 534]
A: > 0.01%

---

test system: Maize weevil [Sitophilus Zeamais (Motschulsky)]; experiment: Maize weevil test (MW); format: in vivo; conditions: adult weevils, treated corn seeds, 48 hours, percent in solution
Item-by-item account of LC50 MW

Here is how some compounds turned out for LC50 MW.
> print(dat)
                                   compound   result
1  CC(C)C(=Nc1ccc(F)c(Cl)c1F)OCc1ccc(F)c(Oc2ccc(F)cc2)c1   0.001%
2  Cc1ccc(N=C(OCc2cccc(Oc3ccc(F)cc3)c2)C(C)C)cc1Cl  > 0.01%
3  CC(C)C(=Nc1ccc(F)c(C(F)(F)F)c1)OCc1cccc(Oc2ccc(F)cc2)c1  > 0.01%
4  CC(C)C(=Nc1ccc(OC(F)(F)F)cc1)OCc1cccc(Cc2ccccc2)c1 [Compound 542]  > 0.01%
5  CCOc1ccc(N=C(OCc2ccc(F)c(Oc3ccc(Cl)cc3)c2)C(C)C)cc1Cl  > 0.01%

Q: Query for Maize weevil [Sitophilus Zeamais (Motschulsky)]: what LC50 MW does the record show for CCc1ccccc1N=C(OCc1cccc(Oc2ccc(F)cc2)c1)C(C)C ?
A: > 0.01%

Q: Request body: readout LC50 MW, system Maize weevil [Sitophilus Zeamais (Motschulsky)], query CC(C)C(=Nc1ccc2c(c1)OCO2)OCc1cc(Oc2ccc(F)cc2)ccn1 . Return the value.
A: > 0.01%

Q: Observed LC50 MW on Maize weevil [Sitophilus Zeamais (Motschulsky)] for CC(C)C(=Nc1ccc(F)c(Cl)c1F)OCc1cccc(Oc2ccc(F)cc2)c1 , please.
A: 0.0075%
